Tested on: normal primary NK cells, pool 1 (3 donors), resting (IL-2 0 ng/mL)
Assay: percent inhibition of viability; higher = more inhibition
Conditions: 72 h; 1000 nM
# Lookup of reported percent inhibition of viability keyed by entry

Look over these answered cases.
molecule | resultType | reported
Oc1ncnc2[nH]ncc12 [Allopurinol] (max concentration tested 10000 nM) | percent inhibition of viability | 23.7%
C=CC(=O)N1CCC[C@@H](n2nc(-c3ccc(Oc4ccccc4)cc3)c3c(N)ncnc32)C1 [Ibrutinib] (max concentration tested 1000 nM) | percent inhibition of viability | 22.4%

Alright, here's another molecule for you.
Exam item: Give recorded percent inhibition of viability with normal primary NK cells, pool 1 (3 donors), resting (IL-2 0 ng/mL) for the following molecule: CCc1cc2c(cc1N1CCC(N3CCOCC3)CC1)C(C)(C)c1[nH]c3cc(C#N)ccc3c1C2=O [Alectinib] (max concentration tested 1000 nM)
Marked response: 12.5%

---

Test system: KHYG-1 (IL-2 2.5 ng/mL)
Assay: percent inhibition of viability; higher = more inhibition
Conditions: 72 h; 10 nM
resultType: percent inhibition of viability (%)
Give just the numeric value; % need not be written.

compound | unitInfo | reported
CNC(=O)c1cc(COc2nnc(Nc3ccc(Cl)cc3)c3ccoc23)ccn1 [Telatinib] (max concentration tested 10000 nM) | % | 1.6
CC(C)C[C@H](NC(=O)[C@H](Cc1ccccc1)NC(=O)c1cnccn1)B(O)O [Bortezomib] (max concentration tested 1000 nM) | % | 105
O=C(O)CCCCC(CCSCc1ccccc1)SCc1ccccc1 (centres undefined) [CPI-613] (max concentration tested 10000 nM) | % | -6.53

Alright, here's another compound for you.
Exam item: Could you tell me which percent inhibition of viability is on file for COc1c(C)cnc(Cn2cnc3c(Cl)nc(N)nc32)c1C [BIIB021] (max concentration tested 10000 nM) ?
Marked response: -2.89

---

Test system: KHYG-1 (IL-2 2.5 ng/mL)
Experiment: relative IC50 (inflection point of fitted viability curve, relative to fitted max inhibition); higher = less sensitive
Conditions: 72 h
# Lookup of reported relative IC50 keyed by entry
Give just the numeric value; nM need not be written.

Exam item: Could you tell me which relative IC50 is on file for `O=c1[nH]cc(F)c(=O)[nH]1` ?
Marked response: 2010

Exam item: Now try `N#CC[C@H](C1CCCC1)n1cc(-c2ncnc3[nH]ccc23)cn1` .
Marked response: 21.9

Exam item: Now try `CCn1c(=O)c(-c2cc[nH]n2)cc2c(C)nc(N)nc21` .
Marked response: 1640

Exam item: Now try O=C(Nc1ccc(-c2ccnc(Nc3ccc(N4CCOCC4)cc3)n2)cc1)C1CCCN1 (stereo not given) .
Marked response: 2490

Exam item: Now try `Nc1nc2[nH]cnc2c(=S)[nH]1` .
Marked response: 322

Exam item: Now try `c1ccc2c(CCNc3ccc(Nc4ccncc4)cc3)c[nH]c2c1` .
Marked response: 1670

Exam item: Now try `C#Cc1cccc(Nc2ncnc3cc(OC)c(OCCCCCCC(=O)NO)cc23)c1` .
Marked response: 131

Exam item: Now try Cc1sc2c(c1C)C(c1ccc(Cl)cc1)=N[C@@H](CC(=O)OC(C)(C)C)c1nnc(C)n1-2 [(+)JQ1] .
Marked response: 165

Exam item: Now try `CC(C)(C)c1cnc(CSc2cnc(NC(=O)C3CCNCC3)s2)o1` .
Marked response: 277

Exam item: Now try `CNC(=O)c1cc(Oc2ccc(NC(=O)Nc3ccc(Cl)c(C(F)(F)F)c3)c(F)c2)ccn1` .
Marked response: 2130

Exam item: Now try `COc1cccc2cc(-c3nc([C@H]4CC[C@H](C(=O)O)CC4)n4ncnc(N)c34)[nH]c12` .
Marked response: 1500

Exam item: Now try `CCN1CCN(Cc2ccc(Nc3ncc(F)c(-c4cc(F)c5nc(C)n(C(C)C)c5c4)n3)nc2)CC1` .
Marked response: 236

Exam item: Now try `CS(=O)(=O)c1ccc(-c2cnc(N)c(C(=O)Nc3ccccc3)n2)cc1` .
Marked response: 1550

Exam item: Now try `CC(=O)O[C@H]1C(=O)[C@@]2(C)[C@H]([C@H](OC(=O)c3ccccc3)[C@]3(O)C[C@H](OC(=O)[C@H](O)[C@@H](NC(=O)c4ccccc4)c4ccccc4)C(C)=C1C3(C)C)[C@]1(OC(C)=O)CO[C@@H]1C[C@@H]2O` .
Marked response: 6.15
